Test system: RPMI-8226 leukemia
Experiment: NCI tumour cell line growth inhibition, 48 h; in the data active means GI50 below about 0.43 µM; inactive means the rest
Outcome codes: active, inactive

compoundSmiles	groupLabel
COc1ccc(Cn2cc3c(c2)-c2oncc2CC3)cc1OC	active
N#Cc1ccccc1C#C/C=C\C#Cc1ccccc1N	inactive
C/C(=N/O)c1ccc2c(c1)/C(=N/O)c1ccccc1-2	inactive

====

System: UACC-62 melanoma
Assay: NCI tumour cell line growth inhibition, 48 h
// reported GI50 for each item listed
measuredParameter: GI50

compoundSmiles	measuredResult
Cc1nc(-c2cnc(NC(C)C)n(C)c2=O)ccc1Oc1ccnc(-c2cnn(C)c2)c1	4.84 µM
CN1CCN(c2ccc(NC(=O)c3cncnc3Nc3ccc(OCc4cccc(F)c4)c(Cl)c3)cc2)CC1	0.914 µM
NC(=O)CC1(O)C=C(Br)C(=O)C(Br)=C1	4.21 µM
NC1=NC(=O)/C(=C/c2ccc3ncccc3c2)S1	> 25 µM
CCCCCCCCCCCCCCCCCCOc1ccccc1CC(=O)OCC[N+](CC)(CC)CC	1.16 µM

====

Entries and their GI50 values follow.
Test system: DU-145 prostate
Assay: NCI tumour cell line growth inhibition, 48 h

molecule	GI50
COc1ccc(-c2nn(-c3ccc(NC(=O)c4cc(Cl)cc(Cl)c4)cc3)cc2-c2ccncc2)cc1Cl	> 100 µM
CC[C@]1(O)CC2CN(CCc3c([nH]c4ccccc34)[C@@](C(=O)OC)(c3cc4c(cc3OC)N(C=O)[C@H]3[C@@](O)(C(=O)OC)[C@H](OC(C)=O)[C@]5(CC)C=CCN6CC[C@]43[C@@H]65)C2)C1 (some centres undefined)	< 0.005 µM
OCc1ccc(N2CCc3cc(F)ccc3C2)cc1Cl	6.67 µM
COc1ccc(C(=O)O[C@H]2[C@H](O[C@H]3[C@@H](O)COC(O[C@H]4C[C@H]5[C@@H]6CC=C7C[C@@H](O)CC[C@]7(C)[C@H]6CC[C@]5(C)[C@H]4[C@H](C)C(=O)CCC(C)C)[C@@H]3OC(C)=O)OC[C@@H](O)[C@@H]2O)c(C)c1 (some centres undefined)	1.26 µM

====

Test system: SNB-75 CNS
Experiment: NCI tumour cell line growth inhibition, 48 h
Listing: TGI of selected compounds

compound	TGI
CC(=O)OCC1OC(n2c(N)c(C#N)c(C)c(C#N)c2=S)C(OC(C)=O)C(OC(C)=O)C1OC(C)=O (stereo not given)	> 100 µM
NC(=O)c1nnsc1NN=O	> 100 µM
C[C@@]1(Cc2ccccc2)C(=O)N2[C@@H](CO)C(c3ccccc3)O[C@]2(C)c2ccccc21 (stereo not given in full)	> 100 µM
CCOC(=O)c1nc2ccc(C(F)(F)F)cc2nc1Nc1ccc(F)cc1	84.3 µM
O=C(CC(c1ccccc1)C1C(=O)NC(=S)NC1=O)c1ccc([N+](=O)[O-])cc1 (stereo not given)	> 100 µM

====

Test system: HOP-62 NSCLC
Assay: NCI tumour cell line growth inhibition, 48 h
Measured TGI of individual entries
measuredParameter: TGI

compound	systemName	measuredResult
CC(C)CC1c2[nH]c3ccccc3c2C[C@H]2C(=O)NC(CCCCNC(=O)OC(C)(C)C)C(=O)N12 (stereo partly drawn)	HOP-62 NSCLC	> 100 µM
COc1cc(C(c2cccc3ccccc23)N2C(=O)CCC2C(=O)O)cc(OC)c1OC (stereo not drawn)	HOP-62 NSCLC	> 100 µM
O=C(O)c1c(Cl)c(Cl)c(Cl)c(Cl)c1C(=O)Nc1ccc2cn[nH]c2c1	HOP-62 NSCLC	> 100 µM
CC12C(=C(C#N)C(=N)N1c1ccc(Cl)c(Cl)c1)C=C(O)CC2SCCS(=O)(=O)O (stereo not drawn)	HOP-62 NSCLC	> 100 µM
O=C(Nc1ccc(-n2ccc3c(NC(=O)c4ccccc4)nccc32)cc1)Nc1cccc(C(F)(F)F)c1	HOP-62 NSCLC	19.1 µM
CCOC(=O)/C(C#N)=C1\SS/C(=C(/C#N)C(=O)OCC)S1	HOP-62 NSCLC	86.7 µM
CCOC(=O)c1nc2ccc(C(F)(F)F)cc2nc1Nc1ccc(F)cc1	HOP-62 NSCLC	> 100 µM
Nc1ncnc2c1ncn2-c1ccc([N+](=O)[O-])cn1	HOP-62 NSCLC	> 100 µM
COc1cccc(C2=C(c3cn(C)c4cc(F)ccc34)C(=O)NC2=O)c1	HOP-62 NSCLC	> 25 µM
C/C(=N/O)c1ccc2c(c1)/C(=N/O)c1ccccc1-2	HOP-62 NSCLC	56.4 µM
CN(C)C(=O)NC(=S)N(C)C	HOP-62 NSCLC	1.52 µM
CN(NC1OC(CO)C(O)C(O)C1O)c1ccccc1 (stereo not drawn)	HOP-62 NSCLC	> 100 µM
CCN(CC)c1ccc(C2NC(=O)c3ccccc3N2)cc1 (stereo not drawn)	HOP-62 NSCLC	> 100 µM
CCCCCCCCCCCCCCCCCCOc1ccccc1CC(=O)OCC[N+](CC)(CC)CC	HOP-62 NSCLC	8.32 µM
CSc1nn(C)cc2nc(C)nc1-2	HOP-62 NSCLC	> 100 µM
COc1cccc(C=C2N=C(c3ccccc3)N(n3c(-c4ccccc4)nc4ccccc4c3=O)C2=O)c1	HOP-62 NSCLC	> 100 µM
C[C@@H]1O[C@]2(O)[C@@H]3CCCN3S(=O)(=O)CCN2C1=O	HOP-62 NSCLC	> 100 µM
O=C(/C=C/C(Cl)(Cl)Cl)Nc1ccc(Cl)cc1	HOP-62 NSCLC	9.95 µM
O=C(c1ccccc1)c1ccc2c(c1)nc1n2C(c2c(F)cccc2F)SC1 (stereo not drawn)	HOP-62 NSCLC	> 100 µM
Oc1cnc2c(O)cccc2c1	HOP-62 NSCLC	> 100 µM
NC(=O)NNCc1c(-c2ccccc2)no[n+]1[O-]	HOP-62 NSCLC	> 100 µM
CC1CCC(=O)C(C(O)CC2CC(=O)N(c3ccccc3)C(=O)C2)C1 (stereo not drawn)	HOP-62 NSCLC	> 100 µM
O=C1C2c3[nH]c4ccccc4c3C3CCCCCC3C2C(=O)N1c1ccccc1 (stereo not drawn)	HOP-62 NSCLC	41.7 µM

====

System: NCI/ADR-RES ovarian
Assay: NCI tumour cell line growth inhibition, 48 h

compound	GI50
COc1ccc(-c2[nH]nc(N)c2-c2cc(OC)c3c(c2)OCO3)cc1	2.33 µM
c1ccc(-c2n(Cc3ccc4ccccc4c3)cc[n+]2Cc2ccc3ccccc3c2)cc1	13.9 µM
C=C1C(=O)O[C@H]2[C@H]1CC/C(Cn1cc(-c3cccc(Cl)c3)nn1)=C\CC[C@@]1(C)O[C@@H]21	2.39 µM
COc1ccc(C(=O)O[C@H]2[C@H](O[C@H]3[C@@H](O)COC(O[C@H]4C[C@H]5[C@@H]6CC=C7C[C@@H](O)CC[C@]7(C)[C@H]6CC[C@]5(C)[C@H]4[C@H](C)C(=O)CCC(C)C)[C@@H]3OC(C)=O)OC[C@@H](O)[C@@H]2O)c(C)c1 (stereo not given in full)	8.48 µM
O=C1c2ccccc2C(=O)c2c1ccc1c(=O)n(-c3ccccc3C(F)(F)F)nnc21	2.05 µM
Cc1ccc(NC(=O)Nc2c(Cl)cccc2Cl)cn1	4.46 µM
Nc1nnnc2nc[nH]c12	0.742 µM
COc1ccc(Cl)cc1Nc1nc(C(F)(F)F)ccc1C(=O)N/N=C/c1cccnc1	3.8 µM
CC[C@]1(O)CC2CN(CCc3c([nH]c4ccccc34)[C@@](C(=O)OC)(c3cc4c(cc3OC)N(C=O)[C@H]3[C@@](O)(C(=O)OC)[C@H](OC(C)=O)[C@]5(CC)C=CCN6CC[C@]43[C@@H]65)C2)C1 (stereo not given in full)	0.698 µM
CCN(CC)CCC(CNc1ccnc2cc(Cl)ccc12)c1ccccc1 (stereo not given)	9.92 µM
C/C(=N/O)c1ccc2c(c1)/C(=N/O)c1ccccc1-2	21 µM
CC(C)(C)NC(=O)[C@H]1CC[C@H]2[C@@H]3CC[C@H]4NC(=O)C=C[C@]4(C)[C@H]3CC[C@]12C	> 100 µM
Cc1ccc(-c2nc3cc(Cl)c(Cl)cc3nc2C#N)cc1	81.2 µM
Cc1nc(-c2cnc(NC(C)C)n(C)c2=O)ccc1Oc1ccnc(-c2cnn(C)c2)c1	8.35 µM
CCN(CC)CCN1C(=O)C2C3C(=O)CC(C)(CC3C)C2C1=O (stereo not given)	> 100 µM

====

Test system: HOP-62 NSCLC
Assay: NCI tumour cell line growth inhibition, 48 h; in the data active = GI50 below about 0.43 µM; inactive = the rest
Classes used: active, inactive

compound	groupLabel
Cc1ccc(-c2nc(N3CCNCC3)c3oc(-c4ccccc4)nc3n2)cc1	inactive
O=C(Nc1ccccc1C(F)(F)F)c1ccc(NC2=C(Cl)C(=O)N(Cc3ccccc3)C2=O)cc1	inactive
Cc1c(-c2ccc(O)cc2)oc(=O)c2ccc(O)cc12	inactive
CC(c1ccccc1)[C@@H](C(=O)Nc1ccc(I)cc1F)N1C(=O)N[C@H](c2ccc(OC[C@H](O)CO)cc2)C1=O (stereo partly drawn)	inactive
Clc1ccc(Nc2nc(Nc3ccccc3)nc(Nc3ccc(-c4cc(-c5ccc(Cl)cc5)on4)cc3)n2)cc1	inactive
COc1ccc(-c2nn(-c3ccc(NC(=O)c4cc(Cl)cc(Cl)c4)cc3)cc2-c2ccncc2)cc1Cl	inactive
COc1ccc(Cn2cc3c(c2)-c2oncc2CC3)cc1OC	active
COc1ccc(Cl)cc1Nc1nc(C(F)(F)F)ccc1C(=O)N/N=C/c1cccnc1	inactive
